The reported numbers originate from patent US20200297760A1.

target: HLA-A*03:01 (Homo sapiens, UniProt P04439); test: REVEAL Epitope Discovery System in vitro MHC-peptide binding assay; details: REVEAL score, binding normalized to positive control peptide set at 100%; greater than 50 considered good or high affinity binding
Endpoint label: A*03:01 In Vitro

Use these answered entries as a reference point.
{"Structure smiles string": "CC[C@H](C)[C@H](N)C(=O)N[C@H](C(=O)N[C@@H](Cc1ccccc1)C(=O)N[C@@H](Cc1c[nH]c2ccccc12)C(=O)N[C@H](C(=O)N[C@@H](CCCCN)C(=O)N[C@@H](CCCNC(=N)N)C(=O)NCC(=O)N[C@@H](CO)C(=O)O)C(C)C)[C@@H](C)CC", "Endpoint label": "A*03:01 In Vitro", "Measured number": 16.20}
{"Structure smiles string": "CC(C)C[C@H](NC(=O)CNC(=O)[C@H](CCCNC(=N)N)NC(=O)[C@H](CCCCN)NC(=O)[C@@H](NC(=O)[C@H](Cc1c[nH]c2ccccc12)NC(=O)[C@@H](N)Cc1ccccc1)C(C)C)C(=O)N[C@@H](CCCCN)C(=O)N[C@@H](CCCCN)C(=O)O", "Endpoint label": "A*03:01 In Vitro", "Measured number": 2.70}

I. CC(C)C[C@H](NC(=O)[C@H](CCCCN)NC(=O)[C@H](CCCCN)NC(=O)[C@H](CCCNC(=N)N)NC(=O)CNC(=O)[C@H](CCCNC(=N)N)NC(=O)[C@H](CCC(N)=O)NC(=O)[C@@H](NC(=O)[C@@H](N)Cc1c[nH]c2ccccc12)C(C)C)C(=O)O
II. CC[C@H](C)[C@H](N)C(=O)N[C@H](C(=O)N[C@@H](Cc1ccccc1)C(=O)N[C@@H](Cc1c[nH]c2ccccc12)C(=O)N[C@H](C(=O)N[C@@H](C)C(=O)N[C@@H](CCCNC(=N)N)C(=O)NCC(=O)N[C@@H](CCCNC(=N)N)C(=O)O)C(C)C)[C@@H](C)CC
Data request: // which entry reports the smaller A*03:01 In Vitro, I or II ? To answer, give the label that identifies your chosen option.
Data returned: I

----------
molecular target: HLA-A*03:01 (Homo sapiens); test: REVEAL Epitope Discovery System in vitro MHC-peptide binding assay; conditions: REVEAL score, binding normalized to positive control peptide set at 100%; greater than 50 considered good or high affinity binding
Endpoint label: A*03:01 In Vitro

1. CC(C)C[C@H](NC(=O)[C@H](CCCCN)NC(=O)[C@H](CCCCN)NC(=O)[C@H](CCCNC(=N)N)NC(=O)CNC(=O)[C@H](CCCNC(=N)N)NC(=O)[C@H](C)NC(=O)[C@@H](NC(=O)[C@@H](N)Cc1c[nH]c2ccccc12)C(C)C)C(=O)O
2. CC(C)[C@H](NC(=O)[C@H](Cc1c[nH]c2ccccc12)NC(=O)[C@@H](N)Cc1ccccc1)C(=O)N[C@@H](CCCCN)C(=O)N[C@@H](CCCNC(=N)N)C(=O)NCC(=O)N[C@@H](CC(N)=O)C(=O)N[C@@H](CCCCN)C(=O)N[C@@H](CCCCN)C(=O)O
Data request: Consider 1 and 2 . Which of these has its A*03:01 In Vitro at a higher number? To answer, give the label that identifies your chosen option.
Data returned: 2

----------
target: HLA-A*03:01 (Homo sapiens, UniProt P04439); assay: REVEAL Epitope Discovery System in vitro MHC-peptide binding assay; settings: REVEAL score, binding normalized to positive control peptide set at 100%; greater than 50 considered good or high affinity binding
Endpoint label: A*03:01 In Vitro

1. CC(C)[C@H](NC(=O)[C@H](Cc1c[nH]c2ccccc12)NC(=O)[C@@H](N)Cc1ccccc1)C(=O)N[C@@H](C)C(=O)N[C@@H](CCCNC(=N)N)C(=O)NCC(=O)N[C@@H](CCCNC(=N)N)C(=O)N[C@@H](CCCCN)C(=O)N[C@@H](CCCCN)C(=O)O
2. CC[C@H](C)[C@H](N)C(=O)N[C@@H](Cc1ccccc1)C(=O)N[C@@H](Cc1c[nH]c2ccccc12)C(=O)N[C@H](C(=O)N[C@@H](CCCCN)C(=O)N[C@@H](CCCNC(=N)N)C(=O)NCC(=O)N[C@@H](CC(N)=O)C(=O)N[C@@H](CCCCN)C(=O)O)C(C)C
Data request: Consider 1 and 2 . Which of these has its A*03:01 In Vitro at a higher number? To answer, give the label that identifies your chosen option.
Data returned: 2
